Target: UniProtKB Q9NR97
Sequence (Q9NR97 27-1041): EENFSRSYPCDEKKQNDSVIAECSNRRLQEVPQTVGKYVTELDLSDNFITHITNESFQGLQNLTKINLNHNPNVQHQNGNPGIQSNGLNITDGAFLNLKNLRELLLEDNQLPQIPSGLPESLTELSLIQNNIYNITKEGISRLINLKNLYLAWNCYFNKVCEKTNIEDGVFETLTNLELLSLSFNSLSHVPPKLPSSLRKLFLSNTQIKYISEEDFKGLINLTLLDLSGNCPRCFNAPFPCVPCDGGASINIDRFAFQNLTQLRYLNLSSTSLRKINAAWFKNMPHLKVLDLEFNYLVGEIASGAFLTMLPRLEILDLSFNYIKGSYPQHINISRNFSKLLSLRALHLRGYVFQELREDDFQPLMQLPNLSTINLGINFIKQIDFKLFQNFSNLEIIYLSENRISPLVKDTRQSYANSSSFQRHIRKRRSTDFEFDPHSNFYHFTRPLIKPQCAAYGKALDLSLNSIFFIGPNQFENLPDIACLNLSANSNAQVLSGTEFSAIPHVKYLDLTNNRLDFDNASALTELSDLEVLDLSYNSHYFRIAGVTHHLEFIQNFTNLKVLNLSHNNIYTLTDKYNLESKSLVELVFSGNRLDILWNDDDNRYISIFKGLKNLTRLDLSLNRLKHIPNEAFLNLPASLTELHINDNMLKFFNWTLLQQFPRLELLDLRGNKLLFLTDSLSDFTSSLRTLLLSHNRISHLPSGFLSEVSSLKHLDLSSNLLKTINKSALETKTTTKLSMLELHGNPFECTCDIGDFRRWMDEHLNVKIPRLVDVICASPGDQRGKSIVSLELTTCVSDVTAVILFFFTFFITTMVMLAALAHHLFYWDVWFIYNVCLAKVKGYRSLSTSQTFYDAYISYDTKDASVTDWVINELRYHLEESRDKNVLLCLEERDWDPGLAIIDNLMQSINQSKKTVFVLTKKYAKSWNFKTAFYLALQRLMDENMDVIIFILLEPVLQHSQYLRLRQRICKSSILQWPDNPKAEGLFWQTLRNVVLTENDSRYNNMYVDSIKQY
Assay: TLR8 inhibition reporter assay (HEK-Blue SEAP);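 also: SEAP driven by IFN-β minimal promoter carrying NF-κB and AP-1 sites, compounds dosed 0.05 nM to 50 µM for 22 h, inhibition scaled between agonist-plus-DMSO and reference-inhibitor wells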
Settings: read-out: TLR8 IC50; HEK-Blue cells overexpressing human TLR8, SEAP reporter, R848 15.9 μM
pIC50: −log10 of the molar value.
assay endpoint: pIC50

CC(C)c1c(-c2cn(C)c3ncccc23)[nH]c2ccc(CCC3CN(CCS(C)(=O)=O)C3)nc12 [Example 684] | 7.89
CCN(CC(=O)N(C)C)C1CCC(c2ccc3[nH]c(-c4cn5ncnc5c(C)c4C)c(C(C)C)c3n2)CC1 (stereo not shown) [Example 467] | 8.46
Cc1c(-c2[nH]c3ccc(C4CCC(NC(C)(C)C(=O)N5CCOCC5)CC4)nc3c2C(C)C)cn2ncnc2c1C (stereo not shown) [Example 496] | 8.68

[a] Cc1cc2[nH]c(-c3cc(C)c4ncnn4c3)c(C(C)C)c2nc1C1CCN(C2CCOCC2)CC1 [Example 575]
[b] Cc1c(-c2[nH]c3ccc(C4CCC(N(CCC#N)C5CC5)CC4)nc3c2C(C)C)cn2ncnc2c1C (stereo not shown) [Example 428]
Kindly compare a with b and tell me which has the lower pIC50 figure. # respond with the chosen item's label a

[A] Cc1cc(-c2[nH]c3ccc(C4CCN(C5CCN(C)C5=O)CC4)nc3c2C(C)C)cn2ncnc12 (stereo not shown) [Example 561]
[B] COc1cc(-c2[nH]c3ccc(C4CCNCC4)nc3c2C(C)C)cn2ncnc12 [Example 520]
For A and B , which recorded pIC50 is lower? Answer with the label corresponding to your selection. B
